conditions: in ethyl acetate, 303.15 K
ASSAY ENDPOINT: solubility (mole fraction)
The answer should be written as a number, with no unit following it.

// query Please report solubility (mole fraction) for the following compound: C/C=C/C=C/C(=O)O
// result 0.0542

----------
details: in acetone, 285.15 K
ASSAY ENDPOINT: solubility (mole fraction)
The answer should be written as a number, with no unit following it.

// query Please report solubility (mole fraction) for the following molecule: C/C=C/C=C/C(=O)O
// result 0.0476

----------
details: in MTBE, 298.15 K
ASSAY ENDPOINT: solubility (mole fraction)

// query Please report solubility (mole fraction) for the following compound: C/C=C/C=C/C(=O)O
// result 0.0577

----------
conditions: in isopropanol, 303.15 K
ASSAY ENDPOINT: solubility (mole fraction)
The answer should be written as a number, with no unit following it.

// query Please report solubility (mole fraction) for the following compound: C/C=C/C=C/C(=O)O
// result 0.0684

----------
conditions: in ethanol, 298.15 K
ASSAY ENDPOINT: solubility (mole fraction)
The answer should be written as a number, with no unit following it.

// query Please report solubility (mole fraction) for the following compound: C/C=C/C=C/C(=O)O
// result 0.0643

----------
settings: in ethanol, 308.15 K
ASSAY ENDPOINT: solubility (mole fraction)
The answer should be written as a number, with no unit following it.

// query Please report solubility (mole fraction) for the following compound: C/C=C/C=C/C(=O)O
// result 0.0872

----------
conditions: in n-butanol, 323.15 K
ASSAY ENDPOINT: solubility (mole fraction)
The answer should be written as a number, with no unit following it.

// query Please report solubility (mole fraction) for the following compound: C/C=C/C=C/C(=O)O
// result 0.173

----------
settings: in isopropanol, 293.15 K
ASSAY ENDPOINT: solubility (mole fraction)
The answer should be written as a number, with no unit following it.

// query Please report solubility (mole fraction) for the following compound: C/C=C/C=C/C(=O)O
// result 0.053

----------
conditions: in methanol, 303.15 K
ASSAY ENDPOINT: solubility (mole fraction)
The answer should be written as a number, with no unit following it.

// query Please report solubility (mole fraction) for the following compound: C/C=C/C=C/C(=O)O
// result 0.0643

----------
conditions: in acetone, 293.15 K
ASSAY ENDPOINT: solubility (mole fraction)
The answer should be written as a number, with no unit following it.

// query Please report solubility (mole fraction) for the following molecule: C/C=C/C=C/C(=O)O
// result 0.0613

----------
conditions: in acetone, 318.15 K
ASSAY ENDPOINT: solubility (mole fraction)
The answer should be written as a number, with no unit following it.

// query Please report solubility (mole fraction) for the following molecule: C/C=C/C=C/C(=O)O
// result 0.14

----------
details: in ethyl acetate, 323.15 K
ASSAY ENDPOINT: solubility (mole fraction)
The answer should be written as a number, with no unit following it.

// query Please report solubility (mole fraction) for the following compound: C/C=C/C=C/C(=O)O
// result 0.102

----------
details: in n-butanol, 303.15 K
ASSAY ENDPOINT: solubility (mole fraction)
The answer should be written as a number, with no unit following it.

// query Please report solubility (mole fraction) for the following compound: C/C=C/C=C/C(=O)O
// result 0.108

----------
settings: in n-butanol, 298.15 K
ASSAY ENDPOINT: solubility (mole fraction)
The answer should be written as a number, with no unit following it.

// query Please report solubility (mole fraction) for the following molecule: C/C=C/C=C/C(=O)O
// result 0.0973

----------
settings: in n-butanol, 285.15 K
ASSAY ENDPOINT: solubility (mole fraction)

// query Please report solubility (mole fraction) for the following compound: C/C=C/C=C/C(=O)O
// result 0.0619

----------
conditions: in methanol, 323.15 K
ASSAY ENDPOINT: solubility (mole fraction)

// query Please report solubility (mole fraction) for the following molecule: C/C=C/C=C/C(=O)O
// result 0.106

----------
conditions: in methanol, 293.15 K
ASSAY ENDPOINT: solubility (mole fraction)
The answer should be written as a number, with no unit following it.

// query Please report solubility (mole fraction) for the following compound: C/C=C/C=C/C(=O)O
// result 0.0457

----------
details: in acetonitrile, 293.15 K
ASSAY ENDPOINT: solubility (mole fraction)

// query Please report solubility (mole fraction) for the following molecule: C/C=C/C=C/C(=O)O
// result 0.0098

----------
conditions: in isopropanol, 318.15 K
ASSAY ENDPOINT: solubility (mole fraction)
The answer should be written as a number, with no unit following it.

// query Please report solubility (mole fraction) for the following compound: C/C=C/C=C/C(=O)O
// result 0.0965

----------
details: in acetonitrile, 289.15 K
ASSAY ENDPOINT: solubility (mole fraction)
The answer should be written as a number, with no unit following it.

// query Please report solubility (mole fraction) for the following molecule: C/C=C/C=C/C(=O)O
// result 0.00746

----------
conditions: in methanol, 289.15 K
ASSAY ENDPOINT: solubility (mole fraction)
The answer should be written as a number, with no unit following it.

// query Please report solubility (mole fraction) for the following compound: C/C=C/C=C/C(=O)O
// result 0.0392

----------
conditions: in ethyl acetate, 293.15 K
ASSAY ENDPOINT: solubility (mole fraction)
The answer should be written as a number, with no unit following it.

// query Please report solubility (mole fraction) for the following molecule: C/C=C/C=C/C(=O)O
// result 0.0357

----------
conditions: in methanol, 318.15 K
ASSAY ENDPOINT: solubility (mole fraction)

// query Please report solubility (mole fraction) for the following compound: C/C=C/C=C/C(=O)O
// result 0.0934

----------
conditions: in ethyl acetate, 308.15 K
ASSAY ENDPOINT: solubility (mole fraction)

// query Please report solubility (mole fraction) for the following molecule: C/C=C/C=C/C(=O)O
// result 0.0626

----------
settings: in n-butanol, 308.15 K
ASSAY ENDPOINT: solubility (mole fraction)
The answer should be written as a number, with no unit following it.

// query Please report solubility (mole fraction) for the following compound: C/C=C/C=C/C(=O)O
// result 0.121

----------
conditions: in isopropanol, 298.15 K
ASSAY ENDPOINT: solubility (mole fraction)
The answer should be written as a number, with no unit following it.

// query Please report solubility (mole fraction) for the following compound: C/C=C/C=C/C(=O)O
// result 0.0613
